Recorded IC50 values for a group of compounds are listed next.
- target-system: GST-RIPK2 fusion protein (human RIPK2, amino acids 1-310) (Homo sapiens)
- Construct: made in house; host or cells: baculovirus infected Sf9 cells
- Sequence (O43353 1-310): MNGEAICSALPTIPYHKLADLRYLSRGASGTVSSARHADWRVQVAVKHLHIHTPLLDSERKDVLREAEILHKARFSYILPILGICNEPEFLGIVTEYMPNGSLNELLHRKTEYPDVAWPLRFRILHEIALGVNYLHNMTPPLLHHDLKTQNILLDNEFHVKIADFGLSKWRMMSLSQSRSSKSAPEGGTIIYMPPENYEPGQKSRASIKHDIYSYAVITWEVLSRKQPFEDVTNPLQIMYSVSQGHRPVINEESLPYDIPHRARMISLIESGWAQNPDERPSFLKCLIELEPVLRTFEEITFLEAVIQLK
- test-description: RIPK2 binding competition assay (TR-FRET, Tracer 199 displacement)
- measurement-parameters: 10 nM Tracer 199, 1 nM GST-RIPK2, read-out: RIPK2 IC50

> print(dat)
                                   compound  experimental.value
1  COc1cc2ncc(-c3cnc4c(c3)CC(=O)N4)n2cc1S(=O)(=O)C(C)(C)C [Example 83]             > 20 nM
2  CCCS(=O)(=O)Nc1cc(-c2cnn3cc(OC)c(S(=O)(=O)C(C)(C)CO)cc23)cc(F)c1OC [Example 132]              < 1 nM
3  CC(C)(C)S(=O)(=O)c1cn2c(-c3cc(F)c(N)nc3F)cnc2cc1OCC1(CO)COC1 [Example 49]        2.5 to 20 nM

Could you now consider this next compound?
Request: Look at this compound and give its reported IC50. CC(C)(C)S(=O)(=O)c1cn2c(-c3cc(F)c(N)nc3F)cnc2cc1OCCCO [Example 17]
Response: 1 to 2.5 nM
